target: Hepatocyte growth factor receptor (Homo sapiens, UniProt P08581)
Sequence (P08581 whole entry): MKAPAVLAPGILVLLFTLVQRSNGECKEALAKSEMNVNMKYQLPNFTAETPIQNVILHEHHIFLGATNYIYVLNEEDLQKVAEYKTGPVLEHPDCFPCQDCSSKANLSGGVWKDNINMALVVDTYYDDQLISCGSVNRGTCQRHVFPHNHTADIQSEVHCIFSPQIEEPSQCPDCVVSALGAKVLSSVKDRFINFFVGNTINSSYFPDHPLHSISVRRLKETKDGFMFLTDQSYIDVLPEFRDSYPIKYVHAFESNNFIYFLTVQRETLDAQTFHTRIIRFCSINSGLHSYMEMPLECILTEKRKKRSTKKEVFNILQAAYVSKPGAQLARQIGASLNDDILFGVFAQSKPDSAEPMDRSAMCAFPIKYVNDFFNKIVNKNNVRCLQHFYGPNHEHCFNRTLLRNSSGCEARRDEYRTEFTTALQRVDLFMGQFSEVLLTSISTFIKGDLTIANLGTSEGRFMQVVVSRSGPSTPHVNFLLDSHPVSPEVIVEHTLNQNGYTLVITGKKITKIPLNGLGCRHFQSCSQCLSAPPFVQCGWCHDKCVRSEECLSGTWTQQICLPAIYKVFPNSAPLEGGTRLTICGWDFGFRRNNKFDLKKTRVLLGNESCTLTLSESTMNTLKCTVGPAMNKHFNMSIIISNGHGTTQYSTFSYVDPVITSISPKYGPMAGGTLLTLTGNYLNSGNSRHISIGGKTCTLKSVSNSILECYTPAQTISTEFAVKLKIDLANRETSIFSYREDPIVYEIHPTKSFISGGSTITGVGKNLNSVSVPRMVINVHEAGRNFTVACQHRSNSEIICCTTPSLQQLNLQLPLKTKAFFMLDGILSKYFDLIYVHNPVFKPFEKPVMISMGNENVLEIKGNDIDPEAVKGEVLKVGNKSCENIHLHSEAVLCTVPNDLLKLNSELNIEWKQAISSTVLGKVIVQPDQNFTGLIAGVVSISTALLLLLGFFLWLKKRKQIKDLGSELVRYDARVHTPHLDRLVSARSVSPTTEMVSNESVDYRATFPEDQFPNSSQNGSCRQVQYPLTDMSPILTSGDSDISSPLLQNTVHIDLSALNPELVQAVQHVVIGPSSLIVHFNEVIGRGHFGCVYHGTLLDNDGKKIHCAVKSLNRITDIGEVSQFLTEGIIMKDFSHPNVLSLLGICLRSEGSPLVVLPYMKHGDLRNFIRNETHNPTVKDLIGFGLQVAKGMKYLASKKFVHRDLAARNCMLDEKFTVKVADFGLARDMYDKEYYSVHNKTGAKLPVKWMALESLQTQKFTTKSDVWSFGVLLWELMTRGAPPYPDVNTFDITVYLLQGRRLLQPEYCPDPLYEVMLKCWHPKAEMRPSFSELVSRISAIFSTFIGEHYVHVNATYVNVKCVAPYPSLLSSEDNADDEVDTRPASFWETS
pIC50: −log10 of the molar value.
reported_property: pIC50

What the record says about `CNc1nccc(-c2cccnc2Oc2ccc(NC(=O)c3ccccc3Nc3ccccc3)cc2)n1` : pIC50 is < 6.00

---

target: RAC-beta serine/threonine-protein kinase (Homo sapiens, UniProt P31751)
Sequence (P31751 whole entry): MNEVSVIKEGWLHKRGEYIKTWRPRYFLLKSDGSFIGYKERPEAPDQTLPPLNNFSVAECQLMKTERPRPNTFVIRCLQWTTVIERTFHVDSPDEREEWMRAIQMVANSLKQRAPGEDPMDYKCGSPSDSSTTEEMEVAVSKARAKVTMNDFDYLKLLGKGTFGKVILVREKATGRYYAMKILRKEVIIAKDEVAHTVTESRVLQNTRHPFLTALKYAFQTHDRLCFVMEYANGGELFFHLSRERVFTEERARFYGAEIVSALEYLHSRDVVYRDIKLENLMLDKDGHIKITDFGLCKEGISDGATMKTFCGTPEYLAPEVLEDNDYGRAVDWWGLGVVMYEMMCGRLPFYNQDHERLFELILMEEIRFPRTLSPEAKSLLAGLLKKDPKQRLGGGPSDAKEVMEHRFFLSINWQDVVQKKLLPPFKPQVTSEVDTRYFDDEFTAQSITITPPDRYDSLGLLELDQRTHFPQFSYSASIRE
pIC50: −log10 of the molar value.
reported_property: pIC50

Note to self: pIC50 of `CNc1nccc(-c2cccnc2Oc2ccc(Nc3nnc(-c4ccc(F)cc4)c4ccccc34)cc2)n1` with RAC-beta serine/threonine-protein kinase (Homo sapiens, UniProt P31751) was < 4.60

---

assay: Clearance in Sprague-Dawley rat at 0.5 mg/kg, iv and 2 mg/kg, po; format: ADME, organism-based; conditions: in vivo
Documented clearance across a set of compounds
Give just the number in mL/min/kg; leave the unit off.

molecular_string: CNc1nccc(-c2cccnc2Oc2ccc(NC(=O)c3ccccc3Nc3ccc(F)cc3)cc2)n1
measured: 26.7
//
molecular_string: CNc1nccc(-c2cccnc2Oc2ccc(NC(=O)c3cc(F)ccc3Nc3ccccc3)cc2)n1
measured: 14.5

Next up:
What the record says about `CNc1nccc(-c2cccnc2Oc2ccc(NC(=O)c3ccccc3Nc3ccccc3)cc2)n1` : clearance is 60
